Entries and their SODIUM values follow.
# Organism: Rattus norvegicus
# METHOD: DrugMatrix - Regimen: Daily Repeat
# Assay type: toxicity, organism-based, Sprague-Dawley
# Design: regimen Daily Repeat, gender Male, age 6-8 weeks
# RECORDED_CONDITIONS: in vivo, po, 1500 mg/kg, 72 h, tissue Plasma, route oral GAVAGE, dose level High, time 3 day, vehicle .5 % CMC
Answer in MEQ/L, number only, no unit symbol.

Enquiry: Write down SODIUM measured for item `CC[C@H]1OC(=O)[C@H](C)[C@@H](O[C@H]2C[C@@](C)(OC)[C@@H](O)[C@H](C)O2)[C@H](C)[C@@H](O[C@@H]2O[C@H](C)C[C@H](N(C)C)[C@H]2O)[C@](C)(O)C[C@@H](C)C(=O)[C@H](C)[C@@H](O)[C@]1(C)O`
Return: 144.47

Enquiry: Write down SODIUM measured for item COc1cc(/C=C/C(=O)O)ccc1O [FERULATE]
Return: 143.87

Enquiry: Write down SODIUM measured for item COc1ccc(Cl)cc1C(=O)NCCc1ccc(S(=O)(=O)NC(=O)NC2CCCCC2)cc1 [GLYBURIDE]
Return: 150.33

Enquiry: Write down SODIUM measured for item `O=C(O)CCc1nc(-c2ccccc2)c(-c2ccccc2)o1`
Return: 145.9

Enquiry: Write down SODIUM measured for item Cc1ccc(S(=O)(=O)NC(=O)NN2CCCCCC2)cc1 [TOLAZAMIDE]
Return: 145.4

----------
# Species on record: Rattus norvegicus
# METHOD: DrugMatrix - Regimen: Daily Repeat
# Assay type: toxicity, organism-based, Sprague-Dawley
# Design: regimen Daily Repeat, gender Male, age 6-8 weeks
# RECORDED_CONDITIONS: in vivo, po, 1500 mg/kg, 72 h, tissue Blood, route oral GAVAGE, dose level High, time 3 day, vehicle .5 % CMC
MEASUREMENT_KIND: ABSOLUTE MONOCYTE (CELLS/uL)
Answer in CELLS/uL, number only, no unit symbol.

Study these solved cases before continuing.
* O=C(O)CCc1nc(-c2ccccc2)c(-c2ccccc2)o1 | 379.33
* Cc1ccc(S(=O)(=O)NC(=O)NN2CCCCCC2)cc1 [TOLAZAMIDE] | 328.33
* CC[C@H]1OC(=O)[C@H](C)[C@@H](O[C@H]2C[C@@](C)(OC)[C@@H](O)[C@H](C)O2)[C@H](C)[C@@H](O[C@@H]2O[C@H](C)C[C@H](N(C)C)[C@H]2O)[C@](C)(O)C[C@@H](C)C(=O)[C@H](C)[C@@H](O)[C@]1(C)O | 91.33

Moving on to the next compound.
Enquiry: Write down ABSOLUTE MONOCYTE measured for item COc1cc(/C=C/C(=O)O)ccc1O [FERULATE]
Return: 382

----------
Entries and their CREATINE PHOSPHOKINASE values follow.
# Species: Rattus norvegicus
# METHOD: DrugMatrix - Regimen: Daily Repeat
# Assay type: toxicity, organism-based, Sprague-Dawley
# Parameters: regimen Daily Repeat, gender Male, age 6-8 weeks
# RECORDED_CONDITIONS: in vivo, po, 0 mg/kg, 72 h, tissue Plasma, route oral GAVAGE, dose level Control, time 3 day, vehicle .5 % CMC
Answer in u/L, number only, no unit symbol.

Study these solved cases before continuing.
- CC(C)Cc1ccc([C@H](C)C(=O)O)cc1: 123.5
- NC(=O)CN1CCCC1=O: 1325.83
- NCC(CC(=O)O)c1ccc(Cl)cc1 (centres undefined): 788
- CC(C)(C#N)c1cc(Cn2cncn2)cc(C(C)(C)C#N)c1: 464.83
- Nc1ccc(C(=O)O)c(O)c1: 127
- CCN1C[C@]2(COC)[C@H](O)C[C@H](OC)[C@@]34[C@@H]5C[C@@]6(O)[C@H](OC(=O)c7ccccc7)[C@@H]5[C@@](OC(C)=O)([C@@H]([C@H](OC)[C@H]23)[C@@H]14)[C@@H](O)[C@@H]6OC: 156.17

Enquiry: Write down CREATINE PHOSPHOKINASE measured for item CN(C)CCOC(c1ccccc1)c1ccccc1.Cn1c(=O)c2[nH]c(Cl)nc2n(C)c1=O [DIMENHYDRINATE]
Return: 442.5

Enquiry: Write down CREATINE PHOSPHOKINASE measured for item CCN(CC)CCNC(=O)c1cc(Cl)c(N)cc1OC [METOCLOPRAMIDE]
Return: 107.67

Enquiry: Write down CREATINE PHOSPHOKINASE measured for item NC(=O)NC(=O)Cc1ccccc1 [PHENACEMIDE]
Return: 243.33
